Tested on: Fibroblast
Test: Multiplex assay against human fibroblast
Assay type: toxicity, cell-based
Conditions: 24 h, 10 µM, compound concentration 10 uM, replicate 1
We use 5% as the dividing line for Population Membrane Permeable-Phenotype (%): on or above the line is t, below is f.

{"Molecule": "CCn1c(=O)c(-c2ccc(-c3cncs3)cc2Cl)cc2cnc(Nc3ccc(N4CCN(C)CC4)cc3)nc21", "Measurement target": "Fibroblast", "Group label": "t"}
{"Molecule": "S=C(NCCCc1c[nH]cn1)NCCCN(Cc1ccc(Cl)c(Cl)c1)c1ccc(Br)cn1", "Measurement target": "Fibroblast", "Group label": "t"}
{"Molecule": "Cc1cn(-c2cc(NC(=O)c3ccc(C)c(Nc4nccc(-c5cccnc5)n4)c3)cc(C(F)(F)F)c2)cn1 [NILOTINIB]", "Measurement target": "Fibroblast", "Group label": "f"}
{"Molecule": "Cc1cc(C)c(S(=O)(=O)N(Cc2ccc(-c3cccc(S(C)(=O)=O)c3)cc2)Cc2ccc(C(F)(F)F)o2)c(C)c1", "Measurement target": "Fibroblast", "Group label": "t"}
{"Molecule": "CN1C2CCC1CC(OC(c1ccc(F)cc1)c1ccc(F)cc1)C2.Cl (stereo not drawn)", "Measurement target": "Fibroblast", "Group label": "t"}

Hey, just so you know, these numbers are from ChEMBL document CHEMBL4689842.
